target: BRD2(2) (Homo sapiens, UniProt P25440); construct: the bromodomain-containing protein is BRD2(2); assay: BromoScan selectivity panel (Kd); format: binding; conditions: Table 8; read-out: Kd (nM) BRD2(2)
Sequence (P25440 344-453 limits assumed): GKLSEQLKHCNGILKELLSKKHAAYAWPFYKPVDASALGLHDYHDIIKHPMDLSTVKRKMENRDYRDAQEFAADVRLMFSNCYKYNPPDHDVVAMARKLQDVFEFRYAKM
assay.readout: Kd (nM)

[[record]]
smiles_input = "Cc1noc(C)c1-c1ccc(-c2nc3cnccn3c2NC(C)(C)C)cc1"
observed_result = 95


====

molecular target: BRD4 (Homo sapiens, UniProt O60885); assay: In vitro AlphaScreen protein binding assay (competition with biotinylated JQ1); details: IC50 (M), Table 1; in vitro, AlphaScreen, inhibiting the activity of BRD4
assay.readout: IC50

[[record]]
smiles_input = "Cc1noc(C)c1-c1ccc(-c2nc3cnccn3c2NC(C)(C)C)cc1"
observed_result = "2.56e-07 M"


====

Biological target: BAZ2A (Homo sapiens, UniProt Q9UIF9)
Sequence (Q9UIF9 1796-1899 limits assumed): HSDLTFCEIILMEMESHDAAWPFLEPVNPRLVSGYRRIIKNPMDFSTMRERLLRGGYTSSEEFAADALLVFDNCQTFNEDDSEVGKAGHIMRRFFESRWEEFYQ
Experiment: BromoScan selectivity panel (Kd)
Format: binding
Conditions: Table 8; read-out: Kd (nM) BAZ2A
assay.readout: Kd

[[record]]
compound = "Cc1noc(C)c1-c1ccc(-c2nc3cnccn3c2NC(C)(C)C)cc1 [UMB32]"
assay_readout = "Kd"
observed_result = "≥ 40000 nM"


====

Target: BRPF1 (Homo sapiens, UniProt P55201)
Sequence (P55201 626-740 limits assumed): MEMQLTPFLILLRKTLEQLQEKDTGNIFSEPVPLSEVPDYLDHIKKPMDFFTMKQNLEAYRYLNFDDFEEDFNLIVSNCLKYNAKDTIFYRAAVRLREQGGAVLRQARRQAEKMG
Assay: BromoScan selectivity panel (Kd)
Format: binding
Conditions: Table 8; read-out: Kd (nM) BRPF1
assay.readout: Kd

[[record]]
molecule = "Cc1noc(C)c1-c1ccc(-c2nc3cnccn3c2NC(C)(C)C)cc1 [UMB32]"
system_under_test = "BRPF1 (Homo sapiens, UniProt P55201)"
observed_result = "≥ 40000 nM"


====

biological target: BRD3(2) (Homo sapiens, UniProt Q15059); construct: the bromodomain-containing protein is BRD3(2); assay: BromoScan selectivity panel (Kd); type: binding; settings: Table 8; read-out: Kd (nM) BRD3(2)
Sequence (Q15059 306-415 limits assumed): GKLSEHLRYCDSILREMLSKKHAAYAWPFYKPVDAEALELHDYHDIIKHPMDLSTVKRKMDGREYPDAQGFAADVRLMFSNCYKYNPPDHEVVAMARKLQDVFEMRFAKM
assay.readout: Kd (nM)

[[record]]
compound = "Cc1noc(C)c1-c1ccc(-c2nc3cnccn3c2NC(C)(C)C)cc1 [UMB32]"
assay_readout = "Kd"
observed_result = 38


====

target: EP300 (Homo sapiens, UniProt Q09472); assay: BromoScan selectivity panel (Kd); type: binding; details: Table 9; read-out: BromoScan Kd, nM EP300
Sequence (Q09472 1040-1161 limits assumed): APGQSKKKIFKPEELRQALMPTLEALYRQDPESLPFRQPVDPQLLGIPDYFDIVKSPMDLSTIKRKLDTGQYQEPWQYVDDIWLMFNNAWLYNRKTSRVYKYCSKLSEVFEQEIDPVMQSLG
assay.readout: Kd (nM)

[[record]]
compound = "Cc1noc(C)c1-c1ccc(-c2nc3cnccn3c2NC(C)(C)C)cc1 [UMB32]"
assay_readout = "Kd"
observed_result = 4500


====

molecular target: FALZ (Homo sapiens, UniProt Q12830); experiment: BromoScan selectivity panel (Kd); format: binding; settings: Table 9; read-out: BromoScan Kd, nM FALZ
assay.readout: Kd

[[record]]
smiles_input = "Cc1noc(C)c1-c1ccc(-c2nc3cnccn3c2NC(C)(C)C)cc1"
assay_readout = "Kd"
observed_result = "≥ 40000 nM"


====

biological target: FALZ (Homo sapiens, UniProt Q12830); experiment: BromoScan selectivity panel (Kd); type: binding; details: Table 8; read-out: Kd (nM) FALZ
assay.readout: Kd

[[record]]
smiles_input = "Cc1noc(C)c1-c1ccc(-c2nc3cnccn3c2NC(C)(C)C)cc1"
assay_readout = "Kd"
observed_result = "≥ 40000 nM"


Entry source: patent US9975896B2
